target.system: T1, Homo sapiens factor Bb protein (human, UniProt P00751 260-764)
T1 construct: Bought from CompTech (A155); also called complement factor Bb; human factor Bb
T1 sequence (P00751 260-764 limits assumed): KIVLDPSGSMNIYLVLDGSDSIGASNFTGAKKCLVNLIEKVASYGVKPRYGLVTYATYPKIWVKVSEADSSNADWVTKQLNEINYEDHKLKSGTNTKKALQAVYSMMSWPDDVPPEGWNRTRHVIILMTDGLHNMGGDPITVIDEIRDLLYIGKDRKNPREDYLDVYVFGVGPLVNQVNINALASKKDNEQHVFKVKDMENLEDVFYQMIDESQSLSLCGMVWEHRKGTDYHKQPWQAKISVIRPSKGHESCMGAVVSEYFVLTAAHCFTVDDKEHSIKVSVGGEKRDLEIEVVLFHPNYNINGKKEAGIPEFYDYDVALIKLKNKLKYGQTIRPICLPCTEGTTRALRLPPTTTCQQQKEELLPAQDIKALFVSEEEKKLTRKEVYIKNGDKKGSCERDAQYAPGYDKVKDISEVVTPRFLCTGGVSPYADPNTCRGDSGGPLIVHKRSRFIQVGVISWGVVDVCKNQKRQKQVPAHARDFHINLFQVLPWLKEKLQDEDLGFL
test.name: SPR single cycle kinetics, IgG on Protein A chip, factor Bb analyte
Description: In order to assess the binding of all humanized variants, single cycle kinetic analysis was performed on supernatants from transfected cell cultures. […] Antibodies were diluted in running buffer to a final concentration of 1 μg/ml, based on concentrations assessed by ELISA titer. […] The sensorgrams and fitted data for the single cycle kinetics are shown in FIGS. 1A-1D and the kinetic parameters measured for the interaction of factor Bb with each antibody are shown in Table 7. […]
readout.type: Kd (nM)
State the answer as a number, implicitly in nM.

Prompt: # Kd lookup, item VH3/Vκ2 (antibody, V domains shown) VH: EVQLVESGGGLVKPGGSLRLSCAASGFTFSNYAMSWVRQAPGKGLEWVATISNRGSYTYYADSVKGRFTISRDNAKNSLYLQMNSLRAEDTALYYCARERPMDYWGQGTLVTVSS VL: DIVMTQSPSTLSASVGDRVTITCKASQDVGTAVAWYQQKPGQPPKLLIYWASTRHTGVPDRFTGSGSGTDFTLTISSLQAEDFAVYFCHQHSSNPLTFGQGTKLEIK
Completion: 16

Prompt: // returns reported Kd for input VH3/Vκ5 (antibody, V domains shown) VH: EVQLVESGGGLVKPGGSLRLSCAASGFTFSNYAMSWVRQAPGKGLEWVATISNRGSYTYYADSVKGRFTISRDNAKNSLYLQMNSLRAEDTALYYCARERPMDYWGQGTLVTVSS VL: DIQMTQSPSTLSASVGDRVTITCRASQDVGTAVAWYQQKPGQPPKLLIYWASTRHTGVPDRFSGSGSGTDFTLTISSLQAEDFATYYCHQHSSNPLTFGQGTKLEIK
Completion: 15.8

Prompt: Quick one: Kd of VH3/Vκ1 (antibody, V domains shown) VH: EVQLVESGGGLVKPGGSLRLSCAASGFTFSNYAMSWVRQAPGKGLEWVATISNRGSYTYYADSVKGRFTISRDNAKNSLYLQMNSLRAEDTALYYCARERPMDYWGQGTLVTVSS VL: DIVMTQSPSFLSASVGDRVTITCKASQDVGTAVAWYQQKPGQPPKLLIYWASTRHTGVPDRFTGSGSGTDFTLTISSLQSEDFAVYFCHQHSSNPLTFGQGTKLEIK ?
Completion: 13.9
